# SYSTEM: hNET (Homo sapiens, UniProt P23975)
# Sequence (P23975 whole entry): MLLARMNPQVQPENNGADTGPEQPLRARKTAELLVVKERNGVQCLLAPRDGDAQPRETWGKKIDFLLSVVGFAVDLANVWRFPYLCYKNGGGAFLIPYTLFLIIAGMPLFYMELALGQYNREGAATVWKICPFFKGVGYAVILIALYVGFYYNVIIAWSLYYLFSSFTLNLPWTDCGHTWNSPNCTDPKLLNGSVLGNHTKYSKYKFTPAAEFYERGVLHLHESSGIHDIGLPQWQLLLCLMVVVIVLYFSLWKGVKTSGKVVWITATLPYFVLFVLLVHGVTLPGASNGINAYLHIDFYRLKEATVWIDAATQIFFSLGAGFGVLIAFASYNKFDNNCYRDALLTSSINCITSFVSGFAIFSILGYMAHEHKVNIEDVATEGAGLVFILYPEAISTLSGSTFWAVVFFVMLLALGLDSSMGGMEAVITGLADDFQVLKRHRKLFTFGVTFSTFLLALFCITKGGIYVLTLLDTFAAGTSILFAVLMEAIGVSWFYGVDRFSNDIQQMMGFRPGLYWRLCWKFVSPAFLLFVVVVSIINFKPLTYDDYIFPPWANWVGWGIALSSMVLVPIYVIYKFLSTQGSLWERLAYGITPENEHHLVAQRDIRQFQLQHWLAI
pIC50: −log10 of the molar value. Where a name gives a salt, the structure may show the parent alone.
Criterion: pIC50 meeting or surpassing 6. Met: 1. Not met: 0.

{"columns": ["MOLECULE", "ASSIGNED_CLASS"],
 "data": [
  ["COc1ccc(OC)c(CCNCc2ccccc2OC)c1 [25H-NBOMe]", 0],
  ["COc1cc(CCNCc2ccccc2O)c(OC)cc1I [25I-NBOH]", 1],
  ["NCCc1c[nH]c2ccc(O)cc12 [5-HT, Serotonin hydrochloride, reference compound]", 0],
  ["CCc1cc(OC)c(CCNCc2ccccc2OC)cc1OC [25E-NBOMe]", 0],
  ["OC1(c2ccc(Cl)cc2)c2ccccc2C2=NCCN21 (stereo not drawn) [Mazindol, reference compound]", 1]
]}

* * *

# SYSTEM: hSERT (Homo sapiens)
# Sequence (P31645 whole entry): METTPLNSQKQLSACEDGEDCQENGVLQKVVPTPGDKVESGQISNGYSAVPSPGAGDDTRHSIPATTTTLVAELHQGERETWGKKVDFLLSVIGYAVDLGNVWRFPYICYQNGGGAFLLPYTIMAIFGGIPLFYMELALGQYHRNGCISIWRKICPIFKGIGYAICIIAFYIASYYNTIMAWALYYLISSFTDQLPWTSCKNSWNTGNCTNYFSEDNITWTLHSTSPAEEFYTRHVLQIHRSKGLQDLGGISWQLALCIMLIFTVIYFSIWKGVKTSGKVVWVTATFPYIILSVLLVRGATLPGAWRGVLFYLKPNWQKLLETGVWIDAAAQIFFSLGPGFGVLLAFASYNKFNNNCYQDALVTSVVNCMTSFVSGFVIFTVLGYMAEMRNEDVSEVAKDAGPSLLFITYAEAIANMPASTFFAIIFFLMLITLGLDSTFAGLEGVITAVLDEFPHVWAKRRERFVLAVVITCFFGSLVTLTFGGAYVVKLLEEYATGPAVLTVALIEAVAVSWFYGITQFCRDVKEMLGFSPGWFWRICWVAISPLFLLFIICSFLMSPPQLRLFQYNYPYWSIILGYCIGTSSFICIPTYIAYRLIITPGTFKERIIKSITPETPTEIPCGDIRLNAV
# RUN_DESCRIPTION: Inhibition of [^125I]RTI-55 binding to hSERT

{"columns": ["COMPOUND", "SYSTEM", "Ki, nM"],
 "data": [
  ["COc1ccc(OC)c(CCNCc2ccccc2OC)c1 [25H-NBOMe]", "hSERT (Homo sapiens)", 2220],
  ["CCc1cc(OC)c(CCNCc2ccccc2OC)cc1OC [25E-NBOMe]", "hSERT (Homo sapiens)", 1590],
  ["COc1cc(CCNCc2ccccc2OC)c(OC)cc1C [25D-NBOMe]", "hSERT (Homo sapiens)", 1780],
  ["OC1(c2ccc(Cl)cc2)c2ccccc2C2=NCCN21 (centres unmarked) [Mazindol, reference compound]", "hSERT (Homo sapiens)", 127],
  ["COc1cc(CCNCc2ccccc2O)c(OC)cc1I [25I-NBOH]", "hSERT (Homo sapiens)", 1220]
]}

* * *

# SYSTEM: 5-HT2C receptor (Homo sapiens, UniProt P28335)
# Sequence (P28335 33-458): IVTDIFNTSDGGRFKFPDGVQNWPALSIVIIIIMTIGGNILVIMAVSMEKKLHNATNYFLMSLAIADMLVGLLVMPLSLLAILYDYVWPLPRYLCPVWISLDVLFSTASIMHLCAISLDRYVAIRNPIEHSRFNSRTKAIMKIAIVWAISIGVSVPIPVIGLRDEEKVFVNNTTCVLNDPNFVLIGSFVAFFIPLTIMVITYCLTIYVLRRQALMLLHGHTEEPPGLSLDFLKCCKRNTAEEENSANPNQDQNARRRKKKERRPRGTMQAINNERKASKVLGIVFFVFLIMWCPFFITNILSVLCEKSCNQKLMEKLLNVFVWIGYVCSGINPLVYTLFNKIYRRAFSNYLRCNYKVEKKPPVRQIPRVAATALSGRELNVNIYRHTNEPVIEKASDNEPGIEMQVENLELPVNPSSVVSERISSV
# RUN_DESCRIPTION: cell-based
pEC50: −log10 of the molar value.
Catalogue of pEC50 values

{"columns": ["COMPOUND", "SYSTEM", "pEC50"],
 "data": [
  ["COc1ccc(OC)c(CCNCc2ccccc2OC)c1 [25H-NBOMe]", "5-HT2C receptor (Homo sapiens, UniProt P28335)", 7.86],
  ["COc1cc(CCNCc2ccccc2OC)c(OC)cc1C [25D-NBOMe]", "5-HT2C receptor (Homo sapiens, UniProt P28335)", 8.86],
  ["COc1cc(CCNCc2ccccc2O)c(OC)cc1I [25I-NBOH]", "5-HT2C receptor (Homo sapiens, UniProt P28335)", 8.62],
  ["CCc1cc(OC)c(CCNCc2ccccc2OC)cc1OC [25E-NBOMe]", "5-HT2C receptor (Homo sapiens, UniProt P28335)", 9.02]
]}

* * *

Catalogue of pEC50 values
# SYSTEM: UniProt Q01959
# Sequence (Q01959 whole entry): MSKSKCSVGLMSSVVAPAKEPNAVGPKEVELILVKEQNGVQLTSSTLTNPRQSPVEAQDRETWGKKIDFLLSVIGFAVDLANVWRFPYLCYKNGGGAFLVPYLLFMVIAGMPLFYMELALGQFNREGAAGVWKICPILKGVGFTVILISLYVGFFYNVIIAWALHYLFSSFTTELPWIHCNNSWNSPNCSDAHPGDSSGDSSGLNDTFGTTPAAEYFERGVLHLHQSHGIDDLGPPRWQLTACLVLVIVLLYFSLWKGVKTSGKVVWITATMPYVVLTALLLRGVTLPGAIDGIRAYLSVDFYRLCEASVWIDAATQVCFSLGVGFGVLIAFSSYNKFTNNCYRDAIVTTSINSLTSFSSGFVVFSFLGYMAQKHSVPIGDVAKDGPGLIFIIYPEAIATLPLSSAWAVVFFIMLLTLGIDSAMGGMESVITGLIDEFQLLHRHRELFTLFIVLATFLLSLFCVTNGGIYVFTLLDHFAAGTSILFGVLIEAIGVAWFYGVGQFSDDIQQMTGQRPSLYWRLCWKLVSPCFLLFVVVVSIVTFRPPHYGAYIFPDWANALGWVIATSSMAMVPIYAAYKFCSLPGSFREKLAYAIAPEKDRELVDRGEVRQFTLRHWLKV
# RUN_DESCRIPTION: Release of preloaded [^3H]DA from HEK-hDAT cells
# Format: cell-based
# SETTINGS: read-out: Drug-induced release of [^3H]neurotransmitter EC50, hDAT [^3H]DA; mean ± sem; HEK-hDAT
pEC50: −log10 of the molar value.

{"columns": ["MOLECULE", "pEC50"],
 "data": [
  ["COc1cc([N+](=O)[O-])c(OC)cc1CCNCc1ccccc1OC [25N-NBOMe]", "< 4.00"],
  ["CN[C@@H](C)Cc1ccccc1 [METH, (S+)methamphetamine, reference compound]", 6.37],
  ["CCN(CC)C(=O)[C@@H]1C=C2c3cccc4[nH]cc(c34)C[C@H]2N(C)C1 [LSD, (+)lysergic acid diethylamide, reference compound]", "< 4.27"],
  ["COc1cc(CC(C)N)c(OC)cc1C (single isomer, unassigned; (-)) [DOM, (-)2,5-dimethoxy-4-methylamphetamine, reference compound]", "< 4.00"]
]}
